- System: KAI3 (IL-2 2.5 ng/mL);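 also: normalised to DMSO-only wells as negative and benzethonium chloride as positive control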
- TEST PROTOCOL: percent inhibition of viability; higher = more inhibition
- ASSAY SETUP: 72 h; 1 nM
MEASUREMENT NAME: percent inhibition of viability (%)
Number only, in %; omit the unit.

Req: Output reported percent inhibition of viability of the compound COc1cc([C@@H]2c3cc4c(cc3[C@@H](O[C@@H]3O[C@@H]5CO[C@@H](c6cccs6)O[C@H]5[C@H](O)[C@H]3O)[C@H]3COC(=O)[C@H]23)OCO4)cc(OC)c1O [Teniposide] (max concentration tested 10000 nM) on KAI3 (IL-2 2.5 ng/mL).
Resp: -5.63

Req: Report value only: percent inhibition of viability, KAI3 (IL-2 2.5 ng/mL), CN1CCN(c2cc(C(=O)Nc3ccc4c(c3)-c3c(c(C(N)=O)nn3-c3ccc(F)cc3)CC4)c(Cl)cn2)CC1 [PHA 408] (max concentration tested 10000 nM)
Resp: -0.05

Req: // fetch percent inhibition of viability; item: CN(c1ccccc1CNc1nc(Nc2ccc3c(c2)CC(=O)N3)ncc1C(F)(F)F)S(C)(=O)=O (max concentration tested 10000 nM) ; system: KAI3 (IL-2 2.5 ng/mL);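 also: normalised to DMSO-only wells as negative and benzethonium chloride as positive control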
Resp: 2.15

Req: State recorded percent inhibition of viability with KAI3 (IL-2 2.5 ng/mL), entry CN(C)c1nc(N(C)C)nc(N(C)C)n1 [Altretamine] (max concentration tested 10000 nM) , no comment.
Resp: 3.52

Req: Enter measured percent inhibition of viability, system KAI3 (IL-2 2.5 ng/mL), for the compound shown: CS(=O)(=O)CCNCc1ccc(-c2ccc3ncnc(Nc4ccc(OCc5cccc(F)c5)c(Cl)c4)c3c2)o1 [Lapatinib] (max concentration tested 1000 nM);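 also: normalised to DMSO-only wells as negative and benzethonium chloride as positive control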
Resp: -7.01

Req: With KAI3 (IL-2 2.5 ng/mL) as the test system, provide measured percent inhibition of viability for this compound: Oc1ncc(N(CCCl)CCCl)c(O)n1 [Uracil mustard] (max concentration tested 10000 nM)
Resp: -2.41
